- Measured On: pre-existing anti-drug antibodies (ADA) present in human sera
- Measurement Description: pre-existing ADA ELISA, scFv coated, human sera unspiked vs spiked
Test Readout: No of serum samples >30% inhibition (30% CCP) without SCP (serum samples)
No unit in the answer, please; the number alone is enough.

Noted for PRO3312 (scFv 37-20-B03-sc09.1_(T101R, T146Q)) (scFv, PRO2230 variant; VH substitutions, AHo numbering; also called PRO2230 T101R-T146Q) scFv: DIQMTQSPASLSASVGDRVTITCQASQSIGTYLAWYQQKPGKPPKLLIYRAFILASGVPSRFSGSGSGTDFTLTISSLQPEDFATYYCQSNFYSDSTTIGPNAFGTGTKVTVLGGGGGSGGGGSGGGGSGGGGSEVQLVESGGGLVQPGGSLRLSCAASGFSFNSDYWIYWVRQAPGKGLEWIASIYGGSSGNTQYASWAQGRFTISRDNSKNTVYLQMNSLRAEDRAVYFCARGYVDYGGATDLWGQGTLVQVSS : its No of serum samples >30% inhibition (30% CCP) without SCP (serum samples) reads 2

So for PRO3319 (scFv 54-21-H03-sc01_(L12A, T101S, L144A, T146R)) (scFv, PRO1922 variant; VH substitutions, AHo numbering; also called PRO1922 L12A-T101S-L144A-T146R) scFv: DIQMTQSPSSLSASVGDRVTITCQASESIYSSLAWYQQKPGKAPKLLIYLASTLASGVPSRFSGSGSGTDFTLTISSLQPEDFATYYCQSTDYTTSTHRNSFGTGTKVTVLGGGGGSGGGGSGGGGSGGGGSEVQLVESGGGAVQPGGSLRLSCAASGFSFSTTYYMCWVRQAPGKGLEWIGCTNTASSVRTYYATWAKGRFTISRDNSKNTVYLQMNSLRAEDSAVYYCARDMGFADYALNLWGQGTAVRVSS , the logged No of serum samples >30% inhibition (30% CCP) without SCP (serum samples) turned out to be 0

The value of No of serum samples >30% inhibition (30% CCP) without SCP (serum samples) measured for the binder PRO2938 (scFv 54-21-H03-sc01_(L12A, T101S, L144A, T146Q)) (scFv, PRO1922 variant; VH substitutions, AHo numbering; also called PRO1922 L12A-T101S-L144A-T146Q) scFv: DIQMTQSPSSLSASVGDRVTITCQASESIYSSLAWYQQKPGKAPKLLIYLASTLASGVPSRFSGSGSGTDFTLTISSLQPEDFATYYCQSTDYTTSTHRNSFGTGTKVTVLGGGGGSGGGGSGGGGSGGGGSEVQLVESGGGAVQPGGSLRLSCAASGFSFSTTYYMCWVRQAPGKGLEWIGCTNTASSVRTYYATWAKGRFTISRDNSKNTVYLQMNSLRAEDSAVYYCARDMGFADYALNLWGQGTAVQVSS turned out to be 0

Values from patent US20250382363A1
